The measurements presented in this section are drawn from patent US20200123233A1.

target: FTM-NN protein (membrane anchorless form of the Long fusion protein of hRSV, 70 kDa) (human respiratory syncytial virus, …, UniProt P12568 26-524); assay: competition ELISA, periplasmic extract diluted 1:1000, competitor 101F Fab
Please go through the items and note down their % Inhibition 101F Fab (1:1000 PE).
Numbers only, in %.

Sample answers from the record:
Binder: PMP1A2 (VHH) VHH: EVQLVESGGGLVQAGGSLRLSCAASERTFSYYAMGWFRQAPGKEREFVATISRSGEWIYYKDAMKGRFTISRDNANNAVYLQMNSLQPEDTAIYYCAADSLGGFRSASDYYNTNTYAYWGQGTQVTVSS
Value measured: 5

Binder: PMP1B2 (VHH) VHH: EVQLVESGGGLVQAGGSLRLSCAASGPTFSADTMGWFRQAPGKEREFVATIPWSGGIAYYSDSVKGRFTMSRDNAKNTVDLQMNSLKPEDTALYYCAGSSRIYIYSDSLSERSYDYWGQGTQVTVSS
Value measured: 25

// query Entry PMP13A1 (VHH) VHH: EVQLVESGGGLVQPGGSLRLSCAASGLTLDYYALGWFRQAPGKEREGVSCISSADHSTTYADSVKGRFTISWDNAKNTVYLQMNSLKPEDTAVYYCAADPALGCYSGNYYPRYDYWGQGTQVTVSS : reported % Inhibition 101F Fab (1:1000 PE) = ?
// result 13
